# Test system: Seoul virus (SEOV)
# Experiment: microbe, parasite or virus in culture
# Type: cell-based
# Assay Context: Orthohantavirus seoulense, Vero C1008, read-out: EC50, SEOV
Measured Metric: EC50
Could you give the number and then its unit, please?

Ask: Report its EC50 with Seoul virus (SEOV) as the test system: O=S1(=O)CCN(Cc2cc(NC3CCOCC3)c3[nH]c(-c4ccccc4)cc3c2)CC1
Result: 1.9 µM

###

# System: vaccinia virus (VACV)
# Experiment: microbe, parasite or virus in culture
# Type: cell-based
# Assay Context: Orthopoxvirus vaccinia, Vero C1008, read-out: EC50, VACV
Measured Metric: pEC50
pEC50 field: float, defined as -log10 of concentration (mol/L).

Ask: Report its pEC50 with vaccinia virus (VACV) as the test system: O=S1(=O)CCN(Cc2cc(NC3CCOCC3)c3[nH]c(-c4ccccc4)cc3c2)CC1 [Example Compound 1]
Result: 5.18

###

# Test system: SARS-CoV-2 B.1.617.2 (delta)
# Experiment: microbe, parasite or virus in culture
# Format: cell-based
# Assay Context: Severe acute respiratory syndrome coronavirus 2
Measured Metric: EC50
Could you give the number and then its unit, please?

Ask: Report its EC50 with SARS-CoV-2 B.1.617.2 (delta) as the test system: O=S1(=O)CCN(Cc2cc(NC3CCOCC3)c3[nH]c(-c4ccccc4)cc3c2)CC1
Result: 1200 nM

###

# Test system: SARS-CoV-2 B.1
# Experiment: RT-qPCR of viral RNA, Vero E6 cells infected with SARS-CoV-2 B.1
# Assay type: cell-based
# Assay Context: Severe acute respiratory syndrome coronavirus 2, Vero C1008; Vero E6, MOI=0.01, 24 hpi; read-out: EC50 against SARS-CoV-2 B.1
Measured Metric: EC50 (nM)
Hi! Could you send only the number? It should be in nM, unit omitted.

Ask: Item O=S1(=O)CCN(Cc2cc(NC3CCOCC3)c3[nH]c(-c4ccccc4)cc3c2)CC1 : provide EC50
Result: 1100
